- system under test: Glucocorticoid receptor (Mus musculus)
- Sequence (P06537 whole entry): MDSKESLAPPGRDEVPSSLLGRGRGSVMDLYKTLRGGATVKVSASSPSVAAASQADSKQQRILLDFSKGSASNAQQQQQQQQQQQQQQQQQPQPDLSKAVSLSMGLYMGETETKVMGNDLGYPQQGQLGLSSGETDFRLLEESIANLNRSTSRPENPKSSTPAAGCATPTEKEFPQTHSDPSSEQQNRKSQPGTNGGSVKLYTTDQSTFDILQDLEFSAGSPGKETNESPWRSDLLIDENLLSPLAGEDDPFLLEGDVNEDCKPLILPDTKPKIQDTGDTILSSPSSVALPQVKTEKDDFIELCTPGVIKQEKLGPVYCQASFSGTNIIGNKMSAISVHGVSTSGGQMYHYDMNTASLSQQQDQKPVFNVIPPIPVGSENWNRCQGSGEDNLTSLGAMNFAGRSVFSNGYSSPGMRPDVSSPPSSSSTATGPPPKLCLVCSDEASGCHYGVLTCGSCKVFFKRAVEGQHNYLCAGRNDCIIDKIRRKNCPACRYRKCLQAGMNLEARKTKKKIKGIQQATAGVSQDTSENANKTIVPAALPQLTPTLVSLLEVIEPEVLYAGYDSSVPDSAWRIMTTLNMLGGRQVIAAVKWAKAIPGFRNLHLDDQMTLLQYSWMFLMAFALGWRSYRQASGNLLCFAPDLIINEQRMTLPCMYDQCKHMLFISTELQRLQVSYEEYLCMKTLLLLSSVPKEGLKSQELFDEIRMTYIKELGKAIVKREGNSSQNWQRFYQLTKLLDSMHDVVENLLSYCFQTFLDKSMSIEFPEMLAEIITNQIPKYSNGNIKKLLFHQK
- assay summary: Displacement of 1 x 10^-8 M of [1,2,3-3H]-triamcinolone acetonide from glucocorticoid receptor in soluble fraction of mouse L929 cells after 20 hrs
- Assay type: cell-based
metric: pKd
Field pKd (float): negative decimal logarithm of the concentration in molar.

Look at this compound and give its reported pKd. C[C@]12CCC(=O)C=C1CC[C@@H]1[C@@H]2[C@@H](O)C[C@@]2(C)[C@H]1CC[C@]2(O)C(=O)COC(=O)CCC(=O)O [HYDROCORTISONE HEMISUCCINATE ANHYDROUS]
6.72
